System: 786-0 renal
Experimental Protocol: NCI-60 one-dose screen, 48 h (100 = growth as untreated, 0 = no growth, -100 = all killed)
Run Conditions: 10 µM unless noted
The panel holds about 83,000 compounds, 20% with a hit somewhere; the sample as a whole holds those more often.
Experimental Readout: growth (%)

compound=Nc1ccc2ccc(N)cc2c1 system_name="786-0 renal" value_unit=% numeric_result=94.3
compound=CC12CCC(CC1)C(C)(C)O2 system_name="786-0 renal" value_unit=% numeric_result=94.5
compound=Cn1cnc([N+](=O)[O-])c1Sc1ncnc2nc[nH]c12 system_name="786-0 renal" value_unit=% numeric_result=36.2
compound=N#C/C(=C1C=C/C(=N/O)C(Br)=C/1)c1ccccc1 system_name="786-0 renal" value_unit=% numeric_result=20
compound="NCCSC(C[N+](=O)[O-])c1ccccc1Cl (configuration not stated)" system_name="786-0 renal" value_unit=% numeric_result=101
compound=Cc1ccc(-c2noc(CC(=O)c3ccc([N+](=O)[O-])cc3)n2)cc1 system_name="786-0 renal" value_unit=% numeric_result=99.6
compound=CCCCCCCCCCCCCCCCOc1ccc(C)cc1 system_name="786-0 renal" value_unit=% numeric_result=107
